test: chemical genetic growth profiling, strain panel (AID 1159580);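 also: tested at 20 µM; growth read once vehicle control cultures reached saturation at 30 °C; 1 = growth at the plate median or of vehicle wells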; conditions: S. cerevisiae deletion strains, growth OD, locus YPR163C, strain tif3, stronger effect = lower value
The whole screen tested about 5,500 compounds, of which about 2,000 (36%) were called active. Inconclusive results (about 18%) are left out. The list shows a part of the results.
# Lookup of reported normalized growth keyed by entry
Form rule: numeric answer, no unit written next to it.

Solved entries (count: 10):
molecule	normalized growth
COC(=O)[C@@H]1OC(=O)C2OC23[C@@]1(C)CCC1[C@@]2(C)CCC(=O)C(C)(C)C2C[C@@H](OC(C)=O)[C@]13C (stereo not given in full)	1.01
CC(=O)N[C@@H](CCC(=O)O)C(=O)O	1.01
CCC(C)C(=O)c1c(O)c(C)c2oc3c(C)c(O)c(C(=O)C(C)CC)c(O)c3c2c1O (stereo not given)	0.994
C=C[C@@]1(C)CC(=O)[C@@]2(O)[C@](C)(O1)[C@@H](OC(C)=O)[C@@H](O)C1C(C)(C)CC[C@H](O)[C@@]12C (stereo not given in full)	0.993
CCCCCCCCCCCCCC(=O)OC1C(C)C2(O)C(C=C(CO)CC3(O)C(=O)C(C)=CC32)C2C(C)(C)C12OC(C)=O (stereo not given)	0.998
Cc1ccc(C(=O)c2ccc(CC(=O)O)n2C)cc1	0.984
NCCCCC(=O)O	0.982
Cc1onc(-c2ccccc2)c1-c1ccc(S(N)(=O)=O)cc1	0.991
COC(=O)[C@@H]1OC(=O)C2OC23[C@@]1(C)CCC1[C@]2(C)C(C[C@@H](O)[C@]13C)C(C)(C)[C@H](OC(C)=O)C[C@@H]2OC(C)=O (stereo not given in full)	1.01
CC(C)c1nc(N(C)S(C)(=O)=O)nc(-c2ccc(F)cc2)c1/C=C/[C@@H](O)C[C@@H](O)CC(=O)O	1.01

Please report the recorded normalized growth for CCN1C[C@@]2(COC)C3[C@@H](OC)[C@H]4[C@@H]1[C@]3(C(OC)C[C@H]2O)C1C[C@@]2(O)[C@H](OC(=O)c3ccccc3)C1[C@]4(OC(C)=O)[C@@H](O)[C@@H]2OC (stereo not given in full) .
1.01

---

assay: chemical genetic growth profiling, strain panel (AID 1159580);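 also: tested at 20 µM; growth read once vehicle control cultures reached saturation at 30 °C; 1 = growth at the plate median or of vehicle wells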; conditions: S. cerevisiae deletion strains, growth OD, locus YCL061C, strain MRC1 (second series)
About 2,000 (36%) of roughly 5,500 compounds were called active. Inconclusive results (about 18%) are left out. No stated cut-off is given here; in the data, active means normalized growth mostly below about 0.91 (no sharp cut-off); inconclusive means no clear call, values can overlap the other calls; inactive means mostly above about 0.92. Some of the results follow.
Field 'call' accepts active, inactive

Known results for compounds:
compound	assigned_label
NC(=NCc1ccc(Cl)c(Cl)c1)NC(=O)c1nc(Cl)c(N)nc1N	inactive
N.N.O=C(O)C1(C(=O)O)CCC1.[Pt+2]	inactive
Cc1ccccc1CNc1ncnc2c1ncn2C1OC(CO)C(O)C1O (stereo not drawn)	inactive
CCCn1c(=O)c2[nH]c(C3CCCC3)nc2n(CCC)c1=O	inactive

Outcome logged for CC(=O)OCC1=C(C(=O)O)N2C(=O)[C@@H](NC(=O)CCC[C@@H](N)C(=O)O)[C@H]2SC1 in this assay:
inactive

Would you mind telling me which call this test gave NCCCCC(=O)O ?
inactive

Outcome logged for c1ccc(CN2CCC3(CCCc4ccccc43)CC2)cc1 in this assay:
active

What classification did Cc1oncc1C(=O)Nc1ccc(C(F)(F)F)cc1 end up with in this test?
inactive

Outcome? CCCCCCCCCCC/C=C\C(C)(C)/C=C\CCCC(=O)O
inactive

For O=C(O)/C=C/C(O)c1ccc(Cl)cc1 (stereo not drawn) , which call appears in the assay record?
inactive
